pIC50: −log10 of the molar value.
Listing of pIC50 toward DNA polymerase I, thermostable (Thermus aquaticus, UniProt P19821), each taken from a published source.
Quick rule: pIC50 of at least 5 means true (1), below that means false (0).

Reference set (2 entries):
{"compound": "O=C1c2ccc3c4c(ccc(c24)C(=O)N1CCNCCO)C(=O)N(CCNCCO)C3=O", "qualitative label": "true (1)"}
{"compound": "CN(C)CCN1C(=O)c2cccc3cccc(c23)C1=O", "qualitative label": "false (0)"}

Q. Determine whether measured pIC50 meets or exceeds 5 for CC(=O)N1N=C(C)CC1c1ccccc1OCc1ccc(Cl)nc1 (stereo not given)
A. false (0)

Q. Determine whether measured pIC50 meets or exceeds 5 for CN(C)CCN1Cc2cccc3cccc(c23)C1
A. false (0)

Q. Determine whether measured pIC50 meets or exceeds 5 for CC1=NN(C(=O)c2ccccc2Cl)C(c2ccccc2O)C1 (stereo not given)
A. false (0)

Q. Determine whether measured pIC50 meets or exceeds 5 for CC(C)(O)C(Br)COc1c2c(cc3oc(=O)ccc13)OCO2 (stereo not given)
A. false (0)

Q. Determine whether measured pIC50 meets or exceeds 5 for O=c1cc(-c2ccc(OCc3ccc(Cl)nc3)cc2)oc2cc(OCc3ccc(Cl)nc3)cc(O)c12
A. true (1)
